Measured Plant response rating, Galium values are reported for all entries that follow.
Test system: Galium (catchweed bedstraw, Galium aparine)
Assay: Test A postemergence
Type: in vivo
Conditions: 125 g ai/ha, postemergence; visual rating after approx. 10 d, 0 to 100 scale (0 no effect, 100 complete control)
Assay readout: Plant response rating, Galium

[[record]]
molecule = "Cc1cc(C2CNC(=O)C2C(=O)Nc2cccc(F)c2F)cs1 (racemic) [Compound 656]"
reading = 0

[[record]]
molecule = "CN1CC(c2ccc(F)c(C(F)(F)F)c2)C(C(=O)Nc2ccccc2F)C1=O (stereo not shown) [Compound 611]"
reading = 50

[[record]]
molecule = "C#CCN1CC(c2cccc(C(F)(F)F)c2)C(C(=O)Nc2ccccc2F)C1=O (stereo not shown) [Compound 607]"
reading = 0

[[record]]
molecule = "O=C1NCC(c2cccc(C(F)(F)F)c2)C1C(=O)Nc1ccc(F)cc1Cl (racemic) [Compound 676]"
reading = 0


###

System: ryegrass, Italian (Italian ryegrass, Lolium multiflorum)
Experiment: Test A preemergence
Assay type: in vivo
Conditions: Lolium multiflorum, pre-emergence, 240 h, 500 g ai/ha, preemergence; 0 to 100 scale (0 no effect, 100 complete control); read-out: Plant response rating, Ryegrass, Italian
Measured pest or weed control at 500 g/ha values are reported for all entries that follow.
Assay readout: pest or weed control at 500 g/ha

[[record]]
compound = "O=C1NC[C@H](c2cccc(C(F)(F)F)n2)[C@H]1C(=O)Nc1cccc(F)c1F"
reading = "0%"

[[record]]
compound = "CN1CC[C@H](c2cccc(C(F)(F)F)c2)[C@@H](C(=O)Nc2ccccc2F)C1=O"
reading = "80%"

[[record]]
compound = "CN1C[C@H](c2ccc(C(F)(F)F)nc2)[C@@H](C(=O)Nc2cccc(F)c2F)C1=O"
reading = "60%"

[[record]]
compound = "CSc1ccccc1NC(=O)[C@H]1C(=O)N(C)C[C@@H]1c1ccc(C(F)(F)F)cc1"
reading = "70%"

[[record]]
compound = "O=C1NC[C@H](c2cncc(C(F)(F)F)c2)[C@H]1C(=O)Nc1cccc(F)c1F"
reading = "60%"

[[record]]
compound = "O=C1NC[C@H](c2cc(C(F)(F)F)ccn2)[C@H]1C(=O)Nc1cccc(F)c1F (racemic)"
reading = "70%"


###

System: ragweed (common ragweed, Ambrosia elatior)
Assay: Test A preemergence
Assay type: in vivo
Settings: Ambrosia artemisiifolia, pre-emergence, 240 h, 500 g ai/ha, preemergence; visual injury rating about 10 d after treatment, 0 to 100 scale (0 no effect, 100 complete control); read-out: Ragweed plant response rating
Measured pest or weed control at 500 g/ha values are reported for all entries that follow.
Assay readout: pest or weed control at 500 g/ha

[[record]]
compound = "CN1CC[C@H](c2ccc(OC(F)(F)F)cc2)[C@@H](C(=O)Nc2cccc(Cl)c2F)C1=O [Compound 1002]"
reading = "0%"

[[record]]
compound = "Cc1ccc([C@H]2CN(C)C(=O)[C@@H]2C(=O)Nc2ccccc2S(C)(=O)=O)cc1Cl [Compound 1018]"
reading = "40%"

[[record]]
compound = "C=CCOc1cccc(C2CN(C)C(=O)C2C(=O)Nc2cccc(F)c2F)c1 (stereo not shown) [Compound 933]"
reading = "90%"

[[record]]
compound = "CSc1ccccc1NC(=O)[C@H]1C(=O)N(C)C[C@@H]1c1ccc(C)c(F)c1 [Compound 983]"
reading = "100%"

[[record]]
compound = "Cc1cc([C@H]2CN(C)C(=O)[C@@H]2C(=O)Nc2ccccc2C(F)(F)F)ccc1Cl [Compound 932]"
reading = "30%"

[[record]]
compound = "CN1CC(c2ccccc2OC(F)(F)C(F)F)C(C(=O)Nc2ccccc2F)C1=O (stereo not shown) [Compound 1053]"
reading = "0%"

[[record]]
compound = "C/C=C/N1C[C@@H](c2cccc(C(F)(F)F)c2)[C@H](C(=O)Nc2ccccc2F)C1=O (racemic) [Compound 1094]"
reading = "0%"

[[record]]
compound = "O=C1NCC(c2ccccc2OC(F)(F)C(F)F)C1C(=O)Nc1cccc(F)c1F (stereo not shown) [Compound 1054]"
reading = "0%"

[[record]]
compound = "Cc1ccc([C@H]2CNC(=O)[C@]2(Br)C(=O)Nc2cccc(F)c2F)cc1F (racemic) [Compound 1073]"
reading = "30%"

[[record]]
compound = "CCOc1cccc([C@H]2CN(C)C(=O)[C@@H]2C(=O)Nc2ccccc2F)c1 [Compound 955]"
reading = "30%"

